Molecular target: T1, recombinant soluble αvβ6, P06756
T1 chain 1: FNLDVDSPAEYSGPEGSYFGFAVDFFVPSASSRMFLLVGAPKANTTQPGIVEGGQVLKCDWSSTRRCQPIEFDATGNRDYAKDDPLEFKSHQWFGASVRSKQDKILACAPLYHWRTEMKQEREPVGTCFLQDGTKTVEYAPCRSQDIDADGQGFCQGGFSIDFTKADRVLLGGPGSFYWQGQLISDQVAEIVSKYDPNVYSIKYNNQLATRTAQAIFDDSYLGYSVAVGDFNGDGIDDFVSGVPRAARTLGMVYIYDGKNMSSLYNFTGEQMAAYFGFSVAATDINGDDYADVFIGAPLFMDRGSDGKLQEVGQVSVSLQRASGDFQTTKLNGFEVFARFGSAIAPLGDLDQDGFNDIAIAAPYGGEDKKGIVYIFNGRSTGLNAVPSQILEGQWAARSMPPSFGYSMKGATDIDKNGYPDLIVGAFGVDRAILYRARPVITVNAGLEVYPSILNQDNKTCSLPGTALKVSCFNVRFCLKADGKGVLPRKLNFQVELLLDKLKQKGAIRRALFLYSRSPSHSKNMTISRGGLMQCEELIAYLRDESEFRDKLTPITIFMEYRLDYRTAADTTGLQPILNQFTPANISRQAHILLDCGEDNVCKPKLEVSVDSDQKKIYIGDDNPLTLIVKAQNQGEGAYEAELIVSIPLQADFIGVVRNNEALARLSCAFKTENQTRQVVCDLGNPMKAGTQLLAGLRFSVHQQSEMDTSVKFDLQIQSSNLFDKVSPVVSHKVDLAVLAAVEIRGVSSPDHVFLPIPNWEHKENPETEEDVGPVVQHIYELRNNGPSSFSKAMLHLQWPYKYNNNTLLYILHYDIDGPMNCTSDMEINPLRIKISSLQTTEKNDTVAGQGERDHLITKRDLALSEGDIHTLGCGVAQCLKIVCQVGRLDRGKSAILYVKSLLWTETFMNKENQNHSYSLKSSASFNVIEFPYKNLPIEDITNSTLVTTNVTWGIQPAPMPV
T1 chain 2: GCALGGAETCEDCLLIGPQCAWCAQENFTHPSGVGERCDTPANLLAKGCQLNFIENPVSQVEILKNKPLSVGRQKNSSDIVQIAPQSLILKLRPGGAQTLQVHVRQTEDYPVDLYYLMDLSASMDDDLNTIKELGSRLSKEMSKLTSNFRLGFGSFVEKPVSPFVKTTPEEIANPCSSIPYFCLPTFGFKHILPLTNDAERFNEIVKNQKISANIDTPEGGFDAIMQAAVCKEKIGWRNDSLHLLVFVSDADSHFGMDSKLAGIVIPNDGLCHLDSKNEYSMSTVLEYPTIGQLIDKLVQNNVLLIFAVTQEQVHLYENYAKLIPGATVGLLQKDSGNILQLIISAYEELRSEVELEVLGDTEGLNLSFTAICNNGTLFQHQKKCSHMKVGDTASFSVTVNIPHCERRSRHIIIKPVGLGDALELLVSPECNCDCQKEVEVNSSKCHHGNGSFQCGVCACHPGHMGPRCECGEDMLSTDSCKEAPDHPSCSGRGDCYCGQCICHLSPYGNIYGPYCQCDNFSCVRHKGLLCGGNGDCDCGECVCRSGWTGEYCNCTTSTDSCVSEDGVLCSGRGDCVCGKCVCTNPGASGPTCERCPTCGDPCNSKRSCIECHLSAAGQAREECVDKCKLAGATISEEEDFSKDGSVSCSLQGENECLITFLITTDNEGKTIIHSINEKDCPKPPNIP
Test: non-competitive binding ELISA; biotinylated peptide on immobilised rsαvβ6
reportedProperty: EC50 (nM)
Quick reminder: number only, in nM, skip the unit.

(Q) Please give the measured EC50 for this binder: CYVPNLRGDLQVLAQKVAKC (modifications not checked) [B-DBD2]
(A) 1.7
